system: ducksalad (Heteranthera limosa); experiment: Test C flooded paddy test: ducksalad; type: in vivo; settings: Flood, 31 g ai/ha; scale 0 to 100 (0 no effect, 100 complete control)
What Plant response rating, Ducksalad was measured for each of the following?
Answers are plain numbers.

1. Cc1nn(-c2ccc(C(F)(F)F)cc2)nc1Oc1ccc(C(F)(F)F)cc1	0
2. COc1nn(-c2ccc(C(F)(F)F)cc2)nc1C(=O)c1ccnc(C(F)(F)F)c1	0
3. Cc1nn(-c2ccc(F)cc2)nc1Cn1cnc(C(F)(F)F)c1Cl	0
4. CCc1nn(-c2ccc(C(F)(F)F)cc2)nc1Cn1ccc(C(F)(F)F)n1	0
5. Cc1nn(-c2ccc(F)cc2)nc1Oc1ccnc(OCC(F)(F)F)c1	0

Batch: Plant response rating, Ducksalad for all items listed.
1. CCc1nn(-c2ccc(C(F)(F)F)cn2)nc1Cc1cccc(C(F)(F)F)c1
2. CSc1ccc(-n2nc(C)c(C(=O)c3cccc(C(F)(F)F)c3)n2)cc1

1. 0
2. 0

----------
tested on: pigweed (Amaranthus retroflexus); experiment: Test A pre-/postemergence: pigweed; type: in vivo; conditions: Preemergence, 500 g ai/ha; 0 to 100 scale, 0 is no effect, 100 is complete control
What Plant response rating, Pigweed was measured for each of the following?
Give bare numbers.

// known answers, use as guide
1) Cc1nn(-c2ccc(C(F)(F)F)nc2)nc1C(=O)c1cccc(C(F)(F)F)c1	100
2) Cc1nn(-c2ccc(F)cc2)nc1Oc1ccc(Cl)c(C(F)(F)F)c1	60
3) Cc1nn(-c2ccnc(F)c2)nc1C(=O)c1cccc(C(F)(F)F)c1	100
4) Cc1nn(-c2ccccc2I)nc1C(=O)c1cccc(C(F)(F)F)c1	0
5) Cc1nn(-c2cccc([N+](=O)[O-])c2)nc1C(=O)c1cccc(C(F)(F)F)c1	0
6) Cc1nn(-c2ccc(F)cc2)nc1Cn1ccc(C(F)(F)F)n1	60
7) Cc1nn(-c2ccc(C(F)(F)F)cn2)nc1Cn1nc(C(F)(F)F)cc1C	50
8) Cc1cc(Oc2nn(-c3ccc(F)cc3)nc2C)ccc1F	0

Batch: Plant response rating, Pigweed for all items listed.
1. Cc1nn(-c2ccc(F)cc2)nc1Oc1cccc(OC(F)(F)F)c1
2. Cc1nn(-c2ccc(F)cc2)nc1Cn1cnc(C(F)(F)F)c1Cl

1: 90; 2: 0

----------
test system: foxtail, giant (giant foxtail, Setaria faberii); assay: Test C pre-/postemergence: foxtail, giant; type: in vivo; conditions: Postemergence, 31 g ai/ha; scale 0 to 100 (0 no effect, 100 complete control)
measured.endpoint: Plant response rating, Foxtail, Giant

// known answers, use as guide
1. Cc1nn(-c2ccc(F)c(F)c2)nc1Oc1ccnc(C(F)(F)F)c1	15
2. Fc1ccc(-n2nc(Cc3ccnc(C(F)(F)F)c3)c(OCC(F)(F)F)n2)cc1	20
3. CCc1nn(-c2ccc(F)cc2)nc1Oc1ccnc(C(F)(F)F)c1	20
4. Cc1nn(-c2ccc(C(F)(F)F)c(F)c2)nc1Cc1ccnc(C(F)(F)F)c1	45

Look at this compound and give its reported Plant response rating, Foxtail, Giant. CCCc1nn(-c2ccc(F)cc2)nc1Cc1ccnc(C(F)(F)F)c1
45

----------
test system: crabgrass, large (large crabgrass, Digitaria sanguinalis); assay: Test A pre-/postemergence: crabgrass, large; format: in vivo; settings: Preemergence, 125 g ai/ha; 0 to 100 scale (0 no effect, 100 complete control)
What Plant response rating, Crabgrass, Large was measured for each of the following?
Answers are plain numbers.

1. COc1nn(-c2ccc(F)cc2)nc1Oc1ccnc(C(F)(F)F)c1	50
2. Cc1nn(-c2ccc(C(F)(F)F)cn2)nc1Cn1ccc(C(F)(F)F)n1	100
3. Cc1nn(-c2cccc(Cl)c2)nc1C(=O)c1cccc(C(F)(F)F)c1	10

Proceed to the following item.
Look at this compound and give its reported Plant response rating, Crabgrass, Large. Cc1nn(-c2cccc(C(F)(F)F)c2)nc1Oc1cc(C(F)(F)F)ncn1
50
